organism: Rattus norvegicus; experiment: DrugMatrix - Regimen: Daily Repeat; assay type: toxicity, organism-based, Sprague-Dawley; design: regimen Daily Repeat, gender Male, age 6-8 weeks; conditions: in vivo, iv, 0 mg/kg, 72 h, tissue Blood, dose level Control, time 3 day, vehicle 100 % SALINE

compound	ABSOLUTE EOSINOPHIL / CELLS/uL
O=c1[nH]c(=O)n([C@H]2C[C@H](O)[C@@H](CO)O2)cc1F	0
N=C(N)c1ccc(OCCCCCOc2ccc(C(=N)N)cc2)cc1	193.5
O=C(O)P(=O)(O)O	247.67
C[N+](C)(C)CCOC(=O)CCC(=O)OCC[N+](C)(C)C.[Cl-].[Cl-] [SUCCINYLCHOLINE CHLORIDE]	193.5
COc1cccc2c1C(=O)c1c(O)c3c(c(O)c1C2=O)C[C@@](O)(C(C)=O)C[C@@H]3O[C@H]1C[C@H](N)[C@H](O)[C@H](C)O1	21.67

These measurements were taken from ChEMBL document CHEMBL3885881.
